PROTOCOL_NOTES: Acute toxicity in Rattus norvegicus (rat) compound administered intradermally
Format: organism-based
RUN_CONDITIONS: in vivo
METRIC_NAME: LD50

Input: For FC(F)(F)c1ccc(OCCCOc2c(Cl)cc(OCC=C(Cl)Cl)cc2Cl)nc1 [PYRIDALYL] , write its LD50.
Output: > 2000 mg/kg

* * *

PROTOCOL_NOTES: Toxicity in Cyprinidae (carp fish)
Type: ADME, organism-based
RUN_CONDITIONS: in vivo
METRIC_NAME: LC50

Input: For FC(F)(F)c1ccc(OCCCOc2c(Cl)cc(OCC=C(Cl)Cl)cc2Cl)nc1 [PYRIDALYL] , write its LC50.
Output: > 10 µg/mL

* * *

PROTOCOL_NOTES: Acute toxicity in po dosed Rattus norvegicus (rat)
Format: organism-based
RUN_CONDITIONS: in vivo
METRIC_NAME: LD50

Input: For FC(F)(F)c1ccc(OCCCOc2c(Cl)cc(OCC=C(Cl)Cl)cc2Cl)nc1 , write its LD50.
Output: > 5000 mg/kg

* * *

PROTOCOL_NOTES: Acute toxicity in Rattus norvegicus (rat) compound administered through inhalation
Type: organism-based
RUN_CONDITIONS: in vivo, inhaled or intranasal
METRIC_NAME: LC50

Input: For FC(F)(F)c1ccc(OCCCOc2c(Cl)cc(OCC=C(Cl)Cl)cc2Cl)nc1 , write its LC50.
Output: > 2.01 µg/mL

Taken from ChEMBL document CHEMBL3045907.
